These entries and their values trace back to paper PMC5540273.

System: PIK3C2G;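 note: KINOMEscan kinase panel screen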
Conditions: concentration: 1 μM, replicates: in singlicate; n = 1
recorded endpoint: %Inh (%)
The answer is to be given in %; state only the numeric part.

1. O=C(Nc1n[nH]c2nc(-c3cccs3)c(Br)cc12)C1CCCC1 [SB-743341] | 5

Please give measured %Inh of the following entry: COc1cc2ncnc(Nc3cccc(Br)c3)c2cc1OC.Cl [GI230329]
0

Tell us which %Inh value is on record for CNc1nc(-c2ccc3c(N)n[nH]c3c2)cc(N2C[C@@H](C(=O)Nc3ccccc3)CC[C@H]2C)n1 [GSK2298859]
0

Indicate its recorded %Inh; the compound in question is O=C(Nc1n[nH]c2cc(-c3ccsc3)ccc12)C1CC1 [SB-732932]
0

Report %Inh for Cc1ccccc1-c1cc(-c2c[nH]nc2-c2ccccn2)ccn1 [GW680061]
0

Provide only the value of recorded %Inh for COc1cccc(NC(=O)Nc2ccc(C)c(-c3ccc(C(=O)Nc4ccncc4)cc3)c2)c1 [GSK1398474]
0

Answer with reported %Inh of CS(=O)(=O)CCNCc1nc(-c2ccc3ncnc(Nc4ccc(OCc5ccccc5)c(Cl)c4)c3c2)cs1.Cl [GW582764]
0

Check the records and state %Inh for "COc1ccc(CSc2nnc(-c3ccc4ncsc4c3)o2)cc1C(F)(F)F"
0

Answer with reported %Inh of COc1cccc(C2=C(Nc3cc(Cl)c(O)c(Cl)c3)C(=O)NC2=O)c1 [SB-390767]
0

// Input: COC(=O)C(Cc1ccccc1)NC(=O)NC1CCN(c2ccnc(Nc3ccc(F)cc3)n2)C1 (stereo not drawn) [GSK1379714] . Output its %Inh only.
73
